# methodNotes: small-molecule binders of probe aLefty1, primary screen, biochemical, small-molecule microarray, 635/667 nm fluorescence (AID 1153);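 note: score merges spot fluorescence with signal-to-noise ratio from the scanned slide images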
# measurementSetup: higher = more signal
measuredParameter: composite z-score

- compound: "COC(=O)C=C(CC(O)c1cccc(Cl)c1)OC (stereo not drawn)"
  composite z-score: 1.6
- compound: "CCCCCN1CC=CC23O[C@@H]4/C=C\\CCCOC(=O)C4[C@H]2C(=O)N(CCCO)[C@@H]3C1=O (stereo partly drawn)"
  composite z-score: -0.353
- compound: "COCCOC(=O)N1C(=O)[C@@]2(c3ccccc31)[C@H](c1ccc(O)cc1)N1[C@H](c3ccccc3)[C@H](c3ccccc3)OC(=O)[C@H]1[C@@H]2C(=O)NC[C@H](O)c1ccccc1"
  composite z-score: 0.132
- compound: "CC(C)(C)OC(=O)CC[C@]12N=C(c3ccc(OCCCO)cc3)O[C@H]1c1ccccc1N(CCS(=O)(=O)c1ccccc1)C2=O"
  composite z-score: 0.447
- compound: "O=C1NCC(=O)N2[C@@H]1C[C@@H](C(=O)O)[C@H]2c1cccc(OCCO)c1"
  composite z-score: 3.14

composite z-score for `COCC(=C=CC[C@@H](O)c1ccccc1OCCO)C[C@@H](O)c1cc(Cl)cc(Cl)c1O` is 0.086

composite z-score for `C=C(COC)/C(=C/C[C@@H](OC(C)=O)c1ccc(OCCO)cc1)c1cc(C(=O)OC)ccc1OC` is 0.139

composite z-score for `COC(=O)[C@@]1(Cc2ccc(F)cc2)[C@H]2c3cc(C(=O)N(C)C)n(Cc4nc5ccccc5[nH]4)c3C[C@H]2CN1C(=O)c1ccccc1` is -0.0297

* * *

Reported composite z-score values for a set of compounds
# methodNotes: binders of probe aHhip on microarray, primary screen, stem cell growth factor project, biochemical, small-molecule microarray, fluorescence 635/667 (AID 1087);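 note: score merges spot fluorescence at 667nm with spot signal to noise ratio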
# measurementSetup: higher = more signal
Form rule: numeric answer, no unit written next to it.

composite z-score for `O=C(O)[C@@]1(CCS(=O)(=O)c2ccccc2)COC(c2ccc(OCCCO)cc2)=N1` is 0.35

composite z-score for C=CCC(OC(C)=O)[C@@H]1[C@@H](N(Cc2cccc3ccccc23)C(=O)c2ccc(-c3ccccc3)cc2)c2cc(OCCCO)ccc2N1C(=O)Cc1ccc(OC)cc1 (some centres not stated) is -0.0618

composite z-score for `CC(C)OC(=O)C=C1C[C@@H](c2ccccc2C(F)(F)F)O[C@@H](c2ccccc2C(F)(F)F)O1` is -0.0994

composite z-score for `CN(C)CCCCCCNC(=O)[C@@H]1C[C@@H]2C(=O)N[C@@H](CCCCN)C(=O)N2[C@@H]1c1cccc(OCCO)c1` is 1.72

composite z-score for `O=C(c1ccccc1)N1Cc2ccccc2[C@@H]2OC(c3ccc(OCCCO)cc3)=N[C@]2(Cc2ccccc2)C1=O` is -0.208

composite z-score for `COCCOC(=O)N1C(=O)[C@@]2(c3cc(C#CCCO)ccc31)[C@H](c1ccc(OCCO)cc1)N1[C@H](c3ccccc3)[C@H](c3ccccc3)OC(=O)[C@H]1[C@@H]2C(=O)N1CCN(c2ncccn2)CC1` is 0.0274

composite z-score for `CCOC(=O)C[C@H]1[C@H](OC(=O)c2cc3ccccc3oc2=O)[C@@H](NC(=O)Cc2ccc(OC)cc2)c2cc(OCCCO)ccc2N1C(=O)c1ccccc1` is -0.199
